Property: DC50; scope: individual compounds
Molecular target: HIF-1α (Homo sapiens)
Construct: endogenous in cells; host or cells: ARPE-19 (ATCC CRL-2302)
Test: Analysis of HIF-1α protein expression (Western blot) in ARPE-19 cells under mixed hypoxic condition
Assay type: cell-based
Conditions: values marked * in the table, mixed hypoxic condition (1% oxygen + CoCl2) for 24 hours, concentration range at which HIF-1α expression is reduced by 50% vs untreated control, read-out: IC50 HIF-1α, Hypoxia(24h)

Please review the following examples before continuing.
compound: O=C(NCc1cc(F)cc(-c2cnn(-c3ccc(F)cc3)c2)c1)c1ncnc2nc(C3CC(F)(F)C3)[nH]c12 [Example 92]
DC50: 100 to 1000 nM
--
compound: COC(=O)C1CC(c2nc3ncnc(C(=O)NCc4cc(F)cc(-c5cnn(-c6ccc(F)cc6)c5)c4)c3[nH]2)C1 (single isomer, unassigned) [103(B)]
DC50: > 10000 nM
--
compound: Cc1cc(-n2cc(-c3cc(F)cc(CNC(=O)c4ncnc5nc(C6CCCC6)[nH]c45)c3)cn2)ccn1 [Example 42]
DC50: < 100 nM
--
compound: Cn1cc(-c2cc(F)cc(CNC(=O)c3ncnc4nc(C5CC6CC6C5)[nH]c34)c2)cn1 (stereo not shown) [Example 78]
DC50: < 100 nM
--
compound: O=C(NCc1cc(F)cc(-c2cnn(-c3ccc(F)cc3)c2)c1)c1ncnc2nc(C3CC(F)C3)[nH]c12 (single isomer, unassigned) [102(B)]
DC50: 100 to 1000 nM
--
compound: CC1(C)CC(c2nc3ncnc(C(=O)NCc4cc(F)cc(-c5cnn(-c6ccc(F)cc6)c5)c4)c3[nH]2)C1 [Example 97]
DC50: 100 to 1000 nM

Now for the compound whose DC50 we want.
Give the measured DC50 of O=C(NCc1cc(F)cc(-c2cnn(C3CCCC3)c2)c1)c1ncnc2nc(C3CCCC3)[nH]c12 [Example 138] .
< 100 nM

---

Biological target: HIF-1α (Homo sapiens, UniProt Q16665)
Construct: endogenous in cells; host or cells: ARPE-19 (ATCC CRL-2302)
Sequence (Q16665 whole entry): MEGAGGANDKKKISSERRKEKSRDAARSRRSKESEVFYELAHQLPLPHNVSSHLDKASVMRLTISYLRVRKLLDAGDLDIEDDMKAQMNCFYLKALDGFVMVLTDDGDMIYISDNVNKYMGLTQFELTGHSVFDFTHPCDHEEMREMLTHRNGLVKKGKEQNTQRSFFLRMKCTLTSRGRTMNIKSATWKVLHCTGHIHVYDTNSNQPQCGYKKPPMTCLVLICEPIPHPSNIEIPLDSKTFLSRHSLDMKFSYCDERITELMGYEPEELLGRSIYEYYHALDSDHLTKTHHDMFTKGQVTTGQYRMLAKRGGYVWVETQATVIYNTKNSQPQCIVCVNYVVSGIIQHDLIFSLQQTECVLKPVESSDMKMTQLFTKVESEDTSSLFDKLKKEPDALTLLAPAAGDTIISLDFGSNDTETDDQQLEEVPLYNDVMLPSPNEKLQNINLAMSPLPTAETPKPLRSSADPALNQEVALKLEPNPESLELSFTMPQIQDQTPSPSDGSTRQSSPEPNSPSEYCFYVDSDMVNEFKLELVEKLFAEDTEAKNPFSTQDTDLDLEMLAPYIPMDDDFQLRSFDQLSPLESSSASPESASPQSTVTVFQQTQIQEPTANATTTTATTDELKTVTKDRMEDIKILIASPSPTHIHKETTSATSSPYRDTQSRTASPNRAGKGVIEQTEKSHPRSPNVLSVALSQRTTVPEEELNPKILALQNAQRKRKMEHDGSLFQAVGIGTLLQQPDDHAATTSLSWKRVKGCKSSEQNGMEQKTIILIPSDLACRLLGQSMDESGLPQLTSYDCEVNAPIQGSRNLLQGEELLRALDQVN
Experiment: Analysis of HIF-1α protein expression (Western blot) in ARPE-19 cells under mixed hypoxic condition
Type: cell-based
Settings: values marked * in the table, mixed hypoxic condition (1% oxygen + CoCl2) for 24 hours, concentration range at which HIF-1α expression is reduced by 50% vs untreated control, read-out: IC50 HIF-1α, Hypoxia(24h)
Property: DC50; scope: individual compounds

Please review the following examples before continuing.
compound: O=C(NCc1cc(F)cc(-c2cnn(-c3ccc(F)cc3)c2)c1)c1ncnc2nc(C3CC(C(=O)O)C3)[nH]c12 (centres unmarked) [Example 106]
endpoint.value: > 10000 nM
//
compound: O=C(NCc1cc(F)cc(-c2cnn(-c3ccc(F)cc3)c2)c1)c1ncnc2nc(C3CC4CC4C3)[nH]c12 (centres unmarked) [Example 113]
endpoint.value: < 100 nM

Give the measured DC50 of O=C(NCc1cc(F)cc(Nc2ccsc2)c1)c1ncnc2nc(C3CCCC3)[nH]c12 [Example 130] .
< 100 nM

Give the measured DC50 of O=C(NCc1cc(F)cc(-c2cnn(-c3cccnc3)c2)c1)c1ncnc2nc(C3CCC(F)(F)C3)[nH]c12 (centres unmarked) [Example 83] .
< 100 nM

Give the measured DC50 of O=C(NCc1cc(F)cc(-c2cnn(-c3ccc(F)cc3)c2)c1)c1ccnc2nc(C3CCCC3)[nH]c12 [Example 107] .
> 10000 nM

Give the measured DC50 of O=C(NCc1cc(F)cc(-c2cnn(-c3ccc(F)cc3)c2)c1)c1nccc2nc(C3CCCC3)[nH]c12 [Example 93] .
< 100 nM

Give the measured DC50 of O=C(NCc1cccc(-c2cnn(-c3ccc(F)cc3)c2)c1)c1ncnc2nc(C3CCCC3)[nH]c12 [Example 57] .
< 100 nM

Give the measured DC50 of O=C(NCc1ccc(-c2cnn(-c3ccc(F)cc3)c2)c(F)c1)c1ncnc2nc(C3CCCC3)[nH]c12 [Example 109] .
> 10000 nM

Give the measured DC50 of CS(=O)(=O)c1cc(Br)ccc1-n1cc(-c2cc(F)cc(CNC(=O)c3ncnc4nc(C5CCCC5)[nH]c34)c2)cn1 [Example 59] .
100 to 1000 nM

Give the measured DC50 of O=C(NCc1cc(F)cc(Nc2ccon2)c1)c1ncnc2nc(C3CCCC3)[nH]c12 [Example 121] .
100 to 1000 nM

Give the measured DC50 of O=C(NCc1cc(F)cc(Nc2nncs2)c1)c1ncnc2nc(C3CCCC3)[nH]c12 [Example 136] .
100 to 1000 nM

Give the measured DC50 of O=C(NCc1cc(F)cc(-c2cnn(-c3ccc(F)cc3)c2)c1)c1ncnc2nc(C3CC4(C3)CC(F)(F)C4)[nH]c12 [Example 98] .
1000 to 10000 nM

Give the measured DC50 of O=C(NCc1cc(-c2cnn(-c3ccc(F)cc3)c2)ccc1F)c1ncnc2nc(C3CCCC3)[nH]c12 [Example 56] .
< 100 nM

Give the measured DC50 of C[C@H](NC(=O)c1ncnc2nc(C3CCCC3)[nH]c12)c1cccc(-c2cnn(-c3ccc(F)cc3)c2)c1 [Example 91] .
1000 to 10000 nM

Give the measured DC50 of O=C(NCc1cc(F)cc(-c2cnn(-c3ccc(F)c(F)c3)c2)c1)c1ncnc2nc(C3CCCC3)[nH]c12 [Example 60] .
< 100 nM

Give the measured DC50 of O=C(NCc1cc(F)cc(Nc2cc[nH]n2)c1)c1ncnc2nc(C3CCCC3)[nH]c12 [Example 120] .
100 to 1000 nM

Give the measured DC50 of N#Cc1ccc(Nc2cc(F)cc(CNC(=O)c3ncnc4nc(C5CCCC5)[nH]c34)c2)cc1 [Example 122] .
< 100 nM

---

Property: DC50; scope: individual compounds
Molecular target: HIF-1α (Homo sapiens, UniProt Q16665)
Construct: endogenous in cells; host or cells: ARPE-19 (ATCC CRL-2302)
Assay: Analysis of HIF-1α protein expression (Western blot) in ARPE-19 cells under mixed hypoxic condition
Type: cell-based
Settings: mixed hypoxic condition (1% oxygen + CoCl2) for 1 hour, concentration range at which HIF-1α expression is reduced by 50% vs untreated control, read-out: IC50 HIF-1α Hypoxia (1 hour)
Where a name gives a salt, the structure may show the parent alone.

Please review the following examples before continuing.
compound: Cn1cc(-c2cc(F)cc(CNC(=O)c3ncnc4nc(C5CCNCC5)[nH]c34)c2)cn1 [Example 70, hydrochloride]
DC50: 100 to 1000 nM

compound: Cn1cc(-c2cc(F)cc(CNC(=O)c3ncnc4nc([C@H]5CCCN5C(=O)OCc5ccccc5)[nH]c34)c2)cn1
DC50: 1000 to 10000 nM

compound: O=C(NCc1cc(F)cc(-c2cnn(CC(F)F)c2)c1)c1ncnc2nc(C3CCCC3)[nH]c12
DC50: < 100 nM

compound: Cn1cc(-c2cc(F)cc(CNC(=O)c3ncnc4nc(CN)[nH]c34)c2)cn1
DC50: 1000 to 10000 nM

compound: O=C(O)c1cccc(-n2cc(-c3cc(F)cc(CNC(=O)c4ncnc5nc(C6CCCC6)[nH]c45)c3)cn2)c1
DC50: < 100 nM

Give the measured DC50 of O=C(NCc1cc(F)cc(Nc2ccc(Cl)cc2F)c1)c1ncnc2nc(C3CCCC3)[nH]c12 .
< 100 nM

Give the measured DC50 of CS(=O)(=O)c1ccc(Nc2cc(F)cc(CNC(=O)c3ncnc4nc(C5CCCC5)[nH]c34)c2)cc1 .
< 100 nM

Give the measured DC50 of Cn1cc(-c2cc(F)cc(CNC(=O)c3ncnc4nc(C5CCN(C(=O)OCc6ccccc6)CC5)[nH]c34)c2)cn1 .
100 to 1000 nM

Give the measured DC50 of O=C(NCc1cc(F)cc(Nc2ccc(F)cc2)c1)c1ncnc2nc(C3CCCC3)[nH]c12 .
< 100 nM

Give the measured DC50 of O=C(NCc1cc(F)cc(-c2ccn(-c3ccc(F)cc3)c2)c1)c1ncnc2nc(C3CCCC3)[nH]c12 .
< 100 nM

Give the measured DC50 of O=C(NCc1cc(F)cc(-c2cnsc2)c1)c1ncnc2nc(C3CCCC3)[nH]c12 .
< 100 nM

Give the measured DC50 of Cn1cc(-c2cccc(C3(NC(=O)c4ncnc5nc(C6CCCC6)[nH]c45)CC3)c2)cn1 .
100 to 1000 nM

Give the measured DC50 of C[C@H](NC(=O)c1ncnc2nc(C3CCCC3)[nH]c12)c1cccc(-c2cnn(C)c2)c1 .
100 to 1000 nM

Give the measured DC50 of O=C(NCc1cc(F)cc(-c2cnn(-c3ccncc3)c2)c1)c1ncnc2nc(C3CCCC3)[nH]c12 .
< 100 nM

Give the measured DC50 of Cn1cc(-c2cc(F)cc(CNC(=O)c3ncnc4nc[nH]c34)c2)cn1 .
1000 to 10000 nM
